- tgt: T1, mouse matriptase-2 ECD protein his tag (mouse, UniProt Q9DBI0 80-811)
- T1 construct: aa 80-811 of Q9DBI0 with C-terminal linker and His tag; also called mouse MTP-2 ECD; moMTP-2
- T1 sequence: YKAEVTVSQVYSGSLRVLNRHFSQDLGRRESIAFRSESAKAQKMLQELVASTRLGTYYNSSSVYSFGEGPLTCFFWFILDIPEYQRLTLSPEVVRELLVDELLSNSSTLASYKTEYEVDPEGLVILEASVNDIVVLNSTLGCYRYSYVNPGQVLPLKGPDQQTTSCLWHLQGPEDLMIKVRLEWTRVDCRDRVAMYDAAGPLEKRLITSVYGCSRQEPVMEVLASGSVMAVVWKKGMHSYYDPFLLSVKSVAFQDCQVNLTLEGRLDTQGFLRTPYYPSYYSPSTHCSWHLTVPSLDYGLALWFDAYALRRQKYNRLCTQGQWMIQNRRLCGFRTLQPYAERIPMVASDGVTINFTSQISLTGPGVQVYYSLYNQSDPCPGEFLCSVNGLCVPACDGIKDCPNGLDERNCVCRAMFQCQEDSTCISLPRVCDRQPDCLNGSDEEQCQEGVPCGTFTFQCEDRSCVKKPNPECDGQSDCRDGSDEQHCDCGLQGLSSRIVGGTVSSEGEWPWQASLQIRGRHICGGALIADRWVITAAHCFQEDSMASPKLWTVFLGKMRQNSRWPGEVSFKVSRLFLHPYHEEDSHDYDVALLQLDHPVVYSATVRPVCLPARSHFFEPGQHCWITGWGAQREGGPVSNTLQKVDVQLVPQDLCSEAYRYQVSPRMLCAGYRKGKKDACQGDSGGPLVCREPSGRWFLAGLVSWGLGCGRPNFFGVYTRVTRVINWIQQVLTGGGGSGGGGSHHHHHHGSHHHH
- assay.text: SPR (Biacore 8K), huIgG4PE captured on anti-human Fc, MTP-2 ECD as analyte, 1:1 fit
experimental.readout: Binding Late top conc
// no unit, no text: just the number

{"columns": ["binder", "measured.number"],
 "data": [
  ["NORI-013 (antibody, human IgG4 S228P, lambda, V domains shown, human IgG4PE, lambda) VH: EVQLVESGGGLIQAGRSLRLSCAASGFTFDEHVIYWVRQIPGKGLEWISSISWKSDIIAYADSVKGRFTISRDNAKNALYLQMNSLRAEDTALYYCAREKDGDFYYYYFAMDVWGQGTTVTVSS VL: QSALTQPPSASGSPGQSVTLSCTGTSSDVGYYNYVSWYLQHPGKAPKLMIYEVSKRPSGVPDRFSGSKSANTASLTVSGLQAEDEADYYCSSYAGSNKVVFGGGTKVTVLG", 7.5]
]}

Please examine the following record next.
Ask: Give reported Binding Late top conc value for NORI-012 (antibody, human IgG4 S228P, lambda, V domains shown, human IgG4PE, lambda) VH: EVQLVESGGGLVQPGRSLRLSCAASGFTFDDHVMYWVRQAPGKGLEWVSGISWNSDTIGYADAVKGRFTISRDNAKNVLYLHMNSLRPEDTALYYCAREKDGDFYYNYFVMDVWGQGTTVTVSP VL: QSALTQPPSASGSPGQSVTISCTGTSSDVGFYNFVSWYQQHPDKAPKVMIYEVSKRPSGVPDRFSGSKSGNTASLTVSGLQAEDEADYYCSSYAGSNKVVFGGGTKLTVLG
Result: 4.6
